# Tested on: NCI-H460 lung
# Test description: NCI-60 one-dose screen, 48 h
# Run conditions: 10 µM unless noted
About 83,000 compounds went through this panel and 20% of them were active in at least one assay; those are over-represented in the sample as a whole. Calls of active or inactive are those of the source. How the source made its calls: active means growth percent below 10; inactive means the rest.
Labels: True = active, False = inactive

{"Molecule": "COc1cc2c(/C=C3\\C(=O)Nc4ccccc43)c(C(=O)O)[nH]c2cc1C", "System": "NCI-H460 lung", "Assigned category": "False"}
{"Molecule": "COc1ccc2nc3cc(Cl)ccc3c(NCCN)c2c1", "System": "NCI-H460 lung", "Assigned category": "True"}
{"Molecule": "O=C(NCc1ccccc1O)c1cccc2ccccc12", "System": "NCI-H460 lung", "Assigned category": "False"}
{"Molecule": "COc1cc(Nc2c3ccc(Cl)cc3nc3ccc(OC)cc23)c2ncccc2c1", "System": "NCI-H460 lung", "Assigned category": "False"}
{"Molecule": "COc1cc2c(c(OC)c1OC)C(=O)N[C@@H]1[C@@H](O)[C@@H](O)[C@H](O)C[C@@H]21", "System": "NCI-H460 lung", "Assigned category": "False"}
{"Molecule": "CCCCCn1sc(=O)n(Cc2ccc(CNC(=O)OCc3ccc4c(Cl)cc(Cl)c(O)c4n3)cc2)c1=O", "System": "NCI-H460 lung", "Assigned category": "False"}
{"Molecule": "Cc1ccc(C)c(-n2c(-c3ccc(Br)cc3)csc2=NC(=O)c2ccccc2F)c1", "System": "NCI-H460 lung", "Assigned category": "False"}
{"Molecule": "CCOC(=O)C1=C(C)N=C2SC=C(c3ccccc3)N2[C@H]1c1cn[nH]c1-c1ccc(Cl)cc1", "System": "NCI-H460 lung", "Assigned category": "False"}
{"Molecule": "S=c1ssnc1-c1cccs1", "System": "NCI-H460 lung", "Assigned category": "False"}
{"Molecule": "Cc1ccc(/C=C/C(=O)c2ccc(NC(=O)CSc3nc4c([nH]3)c(=O)n(C)c(=O)n4C)cc2)c(C)c1", "System": "NCI-H460 lung", "Assigned category": "False"}
{"Molecule": "C=C(C)[C@@H]1CC[C@]2(CO)CC[C@]3(C)[C@H](CC[C@@H]4[C@@]5(C)CCC(NCCc6ccc(O)cc6)C(C)(C)[C@@H]5CC[C@]43C)[C@@H]12 (some centres undefined)", "System": "NCI-H460 lung", "Assigned category": "True"}
{"Molecule": "N#Cc1nc2c(S(=O)(=O)c3ccccc3)c(N)n(Cc3cccnc3)c2nc1C#N", "System": "NCI-H460 lung", "Assigned category": "False"}
{"Molecule": "COc1cc(-c2cc(-c3ccc(Nc4ncnc5cc(Cl)ccc45)cc3)nc(N3CCN(C)CC3)n2)cc(OC)c1OC", "System": "NCI-H460 lung", "Assigned category": "False"}
{"Molecule": "O=C(CCCCl)NNc1nccc(Nc2ccc(S(=O)(=O)Nc3ccncc3)cc2)n1", "System": "NCI-H460 lung", "Assigned category": "False"}
{"Molecule": "COc1cc(/C=N/Nc2ccccc2F)cc(OC)c1OC", "System": "NCI-H460 lung", "Assigned category": "False"}
{"Molecule": "O=C(N/N=C/c1ccc(Cl)cc1Cl)c1ccc2nc(-c3ccc(Cl)cc3)[nH]c2c1", "System": "NCI-H460 lung", "Assigned category": "True"}
{"Molecule": "CCCCCCC(=O)Nc1ncc(Cc2ccc(C)cc2)s1", "System": "NCI-H460 lung", "Assigned category": "False"}
{"Molecule": "O=C1Nc2ccc(F)cc2/C1=C\\c1nc(-c2ccccc2F)n2ccccc12", "System": "NCI-H460 lung", "Assigned category": "False"}
{"Molecule": "COc1ccc(C(c2cc(OC)c(OC)c(OC)c2)N2CCN(Cc3ccccc3)CC2)cc1 (centres undefined)", "System": "NCI-H460 lung", "Assigned category": "False"}
{"Molecule": "CCN1C(=S)N(CC)C2C1NC(=S)N2/N=C/C=C/c1ccccc1OC (centres undefined)", "System": "NCI-H460 lung", "Assigned category": "True"}
{"Molecule": "COc1ccc2c(c1)c(-c1cc(-c3cn(C)c4ccc(OC)cc34)on1)cn2C", "System": "NCI-H460 lung", "Assigned category": "False"}
{"Molecule": "COc1ccc2cc(-c3ccc(-c4ccc(C(=N)N)s4)s3)ccc2c1", "System": "NCI-H460 lung", "Assigned category": "True"}
{"Molecule": "CCC/C(=N\\NC(N)=O)C(OC)OC", "System": "NCI-H460 lung", "Assigned category": "False"}
{"Molecule": "Cn1c(O)c(C(/C=C/c2ccccc2)=Nc2ccccc2N)c(=O)n(C)c1=O", "System": "NCI-H460 lung", "Assigned category": "False"}
